Counter-ions that a name gives are not always drawn.
Assay readout: melting point

[[record]]
compound = "OC1(c2cccc(F)c2F)CCN(CC2CC2)C1 (stereo not shown) (as salt: oxalic acid salt) [Example 64]"
assay_readout = "melting point"
result = "170 to 171 °C"

[[record]]
compound = "CCN1CCC(O)(c2cccc(F)c2F)C1 (stereo not shown) (as salt: fumaric acid salt) [Example 4]"
assay_readout = "melting point"
result = "119 to 120 °C"

[[record]]
compound = "CCN1CCC(O)(c2ccc(F)c(F)c2)C1 (stereo not shown) (as salt: fumaric acid salt) [Example 12]"
assay_readout = "melting point"
result = "157 to 158 °C"


Query :: melting point for COCCN1CCC(O)(c2cc(F)cc(F)c2)C1 (single isomer, unassigned; (-)) (as salt: oxalic acid salt) [Example 45] ?
Result :: 130 to 131 °C

Provenance of the data: patent US8188301B2
